- tested.target: UniProt Q8NBP7
- protocol.details: BODIPY-LDL uptake assay in HepG2 cells
- Format: cell-based
- reported.conditions: 1 μM test compound, 5 μg/ml PCSK9, BODIPY-LDL
endpoint: % increase in LDL Uptake (%)
Numeric answer only, unit % assumed.

Some solved entries appear below for comparison.
> print(dat)
                                   molecule                  endpoint  result.value
1  CSc1ccc(C2=CC3CN(C(=O)c4ccc(C5(O)COC5)cc4)CC3C2)cc1 (centres unmarked) [Example 131]  % increase in LDL Uptake            −5
2  O=C(Nc1ccc(C2(O)COC2)cc1)N1CC2CN(c3ccc(C(F)(F)F)cc3)CC2C1 (centres unmarked) [Example 75]  % increase in LDL Uptake            20
3  O=C(c1cccc(C2(O)COC2)c1)N1CCN(c2ccc(C(F)(F)F)cn2)CC1 [Example 220]  % increase in LDL Uptake             8
4  [2H]C([2H])([2H])OC1(c2cccc(C(=O)N3CCC(c4ccc(C(F)F)cc4)CC3)c2)COC1 [Example 59]  % increase in LDL Uptake             0
5  O=C(c1ccc(C2(O)COC2)cc1)N1CC=C(c2ccc(C(F)(F)F)cc2)CC1 [Example 87]  % increase in LDL Uptake            77

Q) Find the measured % increase in LDL Uptake of O=C(c1ccc(C2(O)CS(=O)(=O)C2)cc1)N1CCC(c2ccc(C(F)(F)F)cc2)CC1 [Example 62] and report it.
A) 18

Q) Find the measured % increase in LDL Uptake of O=C(Nc1cccc(C2(O)COC2)c1)N1CC2CN(c3ccc(C(F)(F)F)cc3)CC2C1 (centres unmarked) [Example 182] and report it.
A) 42

Q) Find the measured % increase in LDL Uptake of COC1(c2ccc(C(=O)N3CC4CC(OC)(c5ccc(C(F)(F)F)cc5)CC4C3)cc2)COC1 (centres unmarked) [Example 92] and report it.
A) −2

====

- tested.target: PCSK9 (Homo sapiens)
- Sequence (Q8NBP7 153-692): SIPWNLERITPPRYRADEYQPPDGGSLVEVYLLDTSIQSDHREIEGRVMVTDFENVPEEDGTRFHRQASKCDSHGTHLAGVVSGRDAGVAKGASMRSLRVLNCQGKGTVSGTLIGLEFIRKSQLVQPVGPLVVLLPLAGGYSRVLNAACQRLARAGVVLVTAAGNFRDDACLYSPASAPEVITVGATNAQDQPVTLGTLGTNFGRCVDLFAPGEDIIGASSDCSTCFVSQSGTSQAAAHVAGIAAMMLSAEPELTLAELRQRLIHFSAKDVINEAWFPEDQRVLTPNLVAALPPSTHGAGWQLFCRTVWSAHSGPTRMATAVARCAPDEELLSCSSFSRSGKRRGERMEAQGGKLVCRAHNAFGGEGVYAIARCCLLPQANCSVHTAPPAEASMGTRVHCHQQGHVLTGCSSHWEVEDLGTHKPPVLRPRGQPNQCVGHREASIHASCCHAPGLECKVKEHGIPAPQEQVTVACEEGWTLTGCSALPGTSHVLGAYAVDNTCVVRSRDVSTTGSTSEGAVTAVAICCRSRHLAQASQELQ
- protocol.details: BODIPY-LDL uptake assay in HepG2 cells
- Assay type: cell-based
- reported.conditions: 10 μM test compound, 5 μg/ml PCSK9, BODIPY-LDL
Respond with 1.0 for % increase in LDL Uptake values of 50% and above, 0.0 for values below.

# count of solved cases: 5
> print(dat)
                                   compound  label.class
1  CC(=O)OC1(c2ccc(C(=O)N3CCC(c4ccc(C(F)(F)F)cc4)CC3)cc2)COC1          0.0
2  COC1(c2ccc(C(=O)N3CC4CN(c5ccc(C(F)(F)F)nc5)CC4C3)cc2)COC1 (centres unmarked)          1.0
3  OC1(c2ccc(-c3nc(-c4ccc(C(F)(F)F)c(F)c4)no3)cc2)COC1          0.0
4  N#CC1(c2ccc(C(F)(F)F)cc2)CCN(C(=O)c2ccc(C3(O)COC3)cc2)CC1          0.0
5  O=C(c1ccc(C2(O)COC2)cc1)N1CCN(c2ccc(C(F)(F)F)cn2)CC1          1.0

Q) Can "O=C(c1ccc(C2(OCC3CC3)COC2)cc1)N1CCC(c2ccc(C(F)(F)F)cc2)CC1" be said to have % increase in LDL Uptake at or above 50%?
A) 0.0

Q) Can "O=C(Nc1ccc(C2(O)COC2)cc1)N1CCC(c2ccc(C(F)(F)F)cc2)CC1" be said to have % increase in LDL Uptake at or above 50%?
A) 1.0

Values compiled from patent US20230089247A1.
